The measurements presented in this section are drawn from ChEMBL document CHEMBL2407016.

assay.system: 1-deoxy-D-xylulose 5-phosphate reductoisomerase (Mycobacterium tuberculosis, UniProt P9WNS1)
Sequence (P9WNS1 whole entry): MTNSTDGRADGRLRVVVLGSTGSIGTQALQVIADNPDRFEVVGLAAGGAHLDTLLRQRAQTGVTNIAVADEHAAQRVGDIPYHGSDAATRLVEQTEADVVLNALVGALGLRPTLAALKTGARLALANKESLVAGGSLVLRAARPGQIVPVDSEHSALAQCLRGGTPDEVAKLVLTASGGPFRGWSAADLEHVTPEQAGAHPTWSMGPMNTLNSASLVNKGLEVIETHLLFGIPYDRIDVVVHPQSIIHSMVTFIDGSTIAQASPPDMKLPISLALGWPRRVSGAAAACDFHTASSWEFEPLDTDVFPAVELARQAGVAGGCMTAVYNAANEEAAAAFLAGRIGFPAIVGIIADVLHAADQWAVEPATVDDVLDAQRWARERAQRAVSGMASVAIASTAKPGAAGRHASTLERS
Threshold-based label: Kd under 200 nM gives condition met, Kd not under 200 nM gives condition not met.

molecule | class.assignment
O=C(c1ccccc1Cn1cncn1)N(O)CCC(c1ccc(Cl)c(Cl)c1)P(=O)(O)O (centres undefined) | condition met
O=C(c1ccccc1OC(F)(F)F)N(O)CCC(c1ccc(Cl)c(Cl)c1)P(=O)(O)O (centres undefined) | condition met
O=C(c1ccccc1Nc1cccc(C(F)(F)F)c1)N(O)CCC(c1ccc(Cl)c(Cl)c1)P(=O)(O)O (centres undefined) | condition met
O=C(c1cccc(Cn2cncn2)c1)N(O)CCC(c1ccc(Cl)c(Cl)c1)P(=O)(O)O (centres undefined) | condition met
O=C(Cc1ccccc1)N(O)CCCP(=O)(O)O | condition not met
O=CN(O)CCC(c1ccc(Cl)c(Cl)c1)P(=O)(O)O (centres undefined) | condition met
O=C(c1ccccc1)N(O)CCC(c1ccc(Cl)c(Cl)c1)P(=O)(O)O (centres undefined) | condition not met
CC(=O)N(O)CCC(c1ccc(Cl)c(Cl)c1)P(=O)(O)O (centres undefined) | condition not met

###

Listed next: entries and their corresponding log10 IC50.
assay.system: 1-deoxy-D-xylulose 5-phosphate reductoisomerase (Mycobacterium tuberculosis, UniProt P9WNS1)
Sequence (P9WNS1 whole entry): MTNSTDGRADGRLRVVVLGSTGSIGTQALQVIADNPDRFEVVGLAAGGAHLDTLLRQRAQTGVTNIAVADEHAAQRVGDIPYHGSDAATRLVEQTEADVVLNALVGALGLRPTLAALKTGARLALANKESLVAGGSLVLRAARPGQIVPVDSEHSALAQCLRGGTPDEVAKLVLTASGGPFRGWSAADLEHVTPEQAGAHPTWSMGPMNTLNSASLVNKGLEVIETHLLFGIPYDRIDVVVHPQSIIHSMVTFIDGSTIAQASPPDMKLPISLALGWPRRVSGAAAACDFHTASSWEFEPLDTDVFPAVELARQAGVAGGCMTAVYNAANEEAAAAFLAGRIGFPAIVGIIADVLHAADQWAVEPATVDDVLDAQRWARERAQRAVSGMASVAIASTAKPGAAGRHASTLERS
parameter.measured: log10 IC50 (log10 of the value in µM)

molecule | log10 IC50
NC(=O)c1cncc(C(=O)N(O)CCCP(=O)(O)O)c1 | 0.56
O=C(c1ccco1)N(O)CCCP(=O)(O)O | 1.69
O=C(c1ccccc1)N(O)CCCP(=O)(O)O | 0.30
O=C(c1ccc(Cn2cncn2)cc1)N(O)CCC(c1ccc(Cl)c(Cl)c1)P(=O)(O)O (stereo not given) | 0.08
Cc1ccccc1C(=O)N(O)CCC(c1ccc(Cl)c(Cl)c1)P(=O)(O)O (stereo not given) | -0.08
O=C(c1ccccc1Cc1cccs1)N(O)CCC(c1ccc(Cl)c(Cl)c1)P(=O)(O)O (stereo not given) | 0.85
O=C(c1ccccc1Nc1cccc(C(F)(F)F)c1)N(O)CCC(c1ccc(Cl)c(Cl)c1)P(=O)(O)O (stereo not given) | 1.28

###

Collected IC50 values appear next to each entry.
assay.system: 1-deoxy-D-xylulose 5-phosphate reductoisomerase (Mycobacterium tuberculosis, UniProt P9WNS1)

compound | IC50
O=C(CCCOc1ccccc1)NCC(=O)N(O)CCCP(=O)(O)O | > 200 µM
O=C(NCC(=O)N(O)CCCP(=O)(O)O)C1CC1 | > 200 µM
CC(=O)Oc1cccc(C(=O)N(O)CCC(c2ccc(Cl)c(Cl)c2)P(=O)(O)O)c1 (stereo not drawn) | > 100 µM
